system: TTR; experiment: TTR editing dose response (EC50, maximum editing) in primary human hepatocytes treated with LNP formulated U-depleted Spy Cas9 mRNA and sgRNAs; type: cell-based; settings: LNP formulated U-depleted Spy Cas9 mRNA and human specific sgRNAs, dose response
Strand notation (5' to 3'): a small letter for the sugar, then the base; units joined by * are phosphorothioate-linked, units joined directly phosphodiester-linked; [ ] holds rarer units or linkages, { } end groups; capitals alone tell only the bases. m = 2'-O-methyl; r = 2'-OH (RNA)
readout.kind: Max Editing
I'd appreciate it if you included the unit after the number.

So, G000480: TTR sgRNA modified sequence, Human, SEQ ID NO: 87; guide sequence of CR003353 (nucleic acid) guide: mA*mA*mA*rGrGrCrUrGrCrUrGrArUrGrArCrArCrCrUrGrUrUrUrUrArGrAmGmCmUmAmGmAmAmAmUmAmGmCrArArGrUrUrArArArArUrArArGrGrCrUrArGrUrCrCrGrUrUrArUrCrAmAmCmUmUmGmAmAmAmAmAmGmUmGmGmCmAmCmCmGmAmGmUmCmGmGmUmGmCmU*mU*mU*mU ? Its Max Editing was 98.69%

Max Editing in this record for G000571: TTR sgRNA modified sequence, Human, SEQ ID NO: 112; guide sequence of CR005301 (nucleic acid) guide: mG*mU*mC*rArCrArGrArArArCrArCrUrCrArCrCrGrUrGrUrUrUrUrArGrAmGmCmUmAmGmAmAmAmUmAmGmCrArArGrUrUrArArArArUrArArGrGrCrUrArGrUrCrCrGrUrUrArUrCrAmAmCmUmUmGmAmAmAmAmAmGmUmGmGmCmAmCmCmGmAmGmUmCmGmGmUmGmCmU*mU*mU*mU : 71.28%

In plain terms, G000494: TTR sgRNA modified sequence, Human, SEQ ID NO: 101; guide sequence of CR003360 (nucleic acid) guide: mG*mU*mG*rArGrUrCrUrGrGrArGrArGrCrUrGrCrArUrGrUrUrUrUrArGrAmGmCmUmAmGmAmAmAmUmAmGmCrArArGrUrUrArArArArUrArArGrGrCrUrArGrUrCrCrGrUrUrArUrCrAmAmCmUmUmGmAmAmAmAmAmGmUmGmGmCmAmCmCmGmAmGmUmCmGmGmUmGmCmU*mU*mU*mU has a documented Max Editing of 75.70%
